molecular target: pre-existing anti-drug antibodies (ADA) present in human sera; assay: pre-existing ADA ELISA, scFv coated, human sera unspiked vs spiked
quantity: No of serum samples >30% inhibition (30% CCP) without SCP (serum samples)

These solved cases illustrate the format of a correct answer.
>>> meas_value("PRO2945 (scFv 54-21-H03-sc01_(T101R)) (scFv, PRO1922 variant; VH substitution, AHo numbering; also called PRO1922 T101R) scFv: DIQMTQSPSSLSASVGDRVTITCQASESIYSSLAWYQQKPGKAPKLLIYLASTLASGVPSRFSGSGSGTDFTLTISSLQPEDFATYYCQSTDYTTSTHRNSFGTGTKVTVLGGGGGSGGGGSGGGGSGGGGSEVQLVESGGGLVQPGGSLRLSCAASGFSFSTTYYMCWVRQAPGKGLEWIGCTNTASSVRTYYATWAKGRFTISRDNSKNTVYLQMNSLRAEDRAVYYCARDMGFADYALNLWGQGTLVTVSS")
0
>>> meas_value("PRO2915 (scFv 37-20-B03-sc09.1_(L12A, T101S, L144A, T146Q)) (scFv, PRO2230 variant; VH substitutions, AHo numbering; also called PRO2230 L12A-T101S-L144A-T146Q) scFv: DIQMTQSPASLSASVGDRVTITCQASQSIGTYLAWYQQKPGKPPKLLIYRAFILASGVPSRFSGSGSGTDFTLTISSLQPEDFATYYCQSNFYSDSTTIGPNAFGTGTKVTVLGGGGGSGGGGSGGGGSGGGGSEVQLVESGGGAVQPGGSLRLSCAASGFSFNSDYWIYWVRQAPGKGLEWIASIYGGSSGNTQYASWAQGRFTISRDNSKNTVYLQMNSLRAEDSAVYFCARGYVDYGGATDLWGQGTAVQVSS")
1

We now examine a further binder.
QUERY: Specify reported No of serum samples >30% inhibition (30% CCP) without SCP (serum samples) for the binder shown: PRO3341 (scFv 37-20-B03-sc09.1_(T101S, T146S)) (scFv, PRO2230 variant; VH substitutions, AHo numbering; also called PRO2230 T101S-T146S) scFv: DIQMTQSPASLSASVGDRVTITCQASQSIGTYLAWYQQKPGKPPKLLIYRAFILASGVPSRFSGSGSGTDFTLTISSLQPEDFATYYCQSNFYSDSTTIGPNAFGTGTKVTVLGGGGGSGGGGSGGGGSGGGGSEVQLVESGGGLVQPGGSLRLSCAASGFSFNSDYWIYWVRQAPGKGLEWIASIYGGSSGNTQYASWAQGRFTISRDNSKNTVYLQMNSLRAEDSAVYFCARGYVDYGGATDLWGQGTLVSVSS
RESULT: 4

Values were extracted from patent US20250382363A1.
